Here the recorded pIC50 is given for each entry.
- System Name: Cytochrome P450 11B2, mitochondrial (Homo sapiens, UniProt P19099)
- Sequence (P19099 whole entry): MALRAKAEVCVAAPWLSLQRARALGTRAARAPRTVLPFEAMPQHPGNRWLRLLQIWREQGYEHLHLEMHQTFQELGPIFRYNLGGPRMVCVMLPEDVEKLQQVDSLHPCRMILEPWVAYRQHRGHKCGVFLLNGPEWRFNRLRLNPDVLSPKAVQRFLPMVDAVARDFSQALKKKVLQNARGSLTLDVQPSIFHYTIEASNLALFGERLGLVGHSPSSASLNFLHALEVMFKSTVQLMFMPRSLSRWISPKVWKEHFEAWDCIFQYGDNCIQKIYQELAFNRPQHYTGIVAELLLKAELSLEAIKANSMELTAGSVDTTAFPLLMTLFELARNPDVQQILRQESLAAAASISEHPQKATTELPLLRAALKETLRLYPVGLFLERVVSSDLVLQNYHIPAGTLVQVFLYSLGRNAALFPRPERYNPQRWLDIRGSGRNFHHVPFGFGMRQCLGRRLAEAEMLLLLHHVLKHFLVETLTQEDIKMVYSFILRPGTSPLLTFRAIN
- Assay Summary: Inhibition of human CYP11B2 expressed in chinese hamster V79 cells
- Format: cell-based
- Measurement Conditions: read-out: IC50
pIC50 field: float, defined as -log10 of concentration (mol/L).

Below, 4 molecules whose answers are already recorded.
{"Molecule": "Fc1ccc(Cn2ccnc2)cc1", "pIC50": 6.48}
{"Molecule": "c1ccc(Cn2ccnc2)cc1 [BENZYLIMIDAZOLE]", "pIC50": 5.74}
{"Molecule": "Cc1cccc(-c2cncn2Cc2ccc(C#N)cc2)c1", "pIC50": 8.28}
{"Molecule": "N#Cc1ccc(Cn2cncc2CCCO)cc1", "pIC50": 7.89}

Query: pIC50 lookup needed for COC(=O)CCc1cncn1Cc1ccc(Cl)cc1 , thanks.
Response: 6.75

Query: OCCCc1cncn1Cc1ccc(Cl)cc1 , same question.
Response: 7.26
